Would you kindly list protein stability index for each of these variants?
B1: TMEM106C (parent)
chain: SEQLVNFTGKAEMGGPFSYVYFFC

variants of: B1; test: protein stability index of a GFP-peptide fusion (GPS, HEK-293T) (PSI 1-6); higher = more stable; details: c terminus: a fixed tail appended;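 further: lentivirally expressed fusions sorted by FACS into six bins by GFP to DsRed ratio, PSI derived from sequencing read proportions per bin multiplied by bin number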
Numbers only.

Answered cases to consult:
F17L : 3.08
F22M : 3.04
K10E : 2.94

# batch size: 2; output protein stability index per entry
1. T8L
2. M13Y

result:
1: 4.14; 2: 3.13
